tested on: A549 human cancer cell line; assay: A549 differential cytotoxicity; assay type: cell-based; conditions: A549; oxic vs anoxic IC50; 4 h incubation then 48 h oxic exposure
ASSAY METRIC: HCR (hypoxia cytotoxicity ratio)

COMPOUND	ASSAY METRIC	VALUE REPORTED
COc1cc(C2=CCCc3c2ccc(OC)c3OC(C)(C)c2ccc([N+](=O)[O-])s2)cc(OC)c1OC [KGP66 (14)]	HCR (hypoxia cytotoxicity ratio)	2.6
COc1ccc2c(C(=O)c3cc(OC)c(OC)c(OC)c3)c(-c3ccc(OC)c(OC(C)c4ccc([N+](=O)[O-])s4)c3)[nH]c2c1 (stereo not drawn) [KGP343 (24)]	HCR (hypoxia cytotoxicity ratio)	33.8
COc1cc(C2=CCCCc3c2ccc(OC)c3OCc2cnc([N+](=O)[O-])n2C)cc(OC)c1OC [KGP293 (21)]	HCR (hypoxia cytotoxicity ratio)	9.0
COc1ccc2c(C(=O)c3cc(OC)c(OC)c(OC)c3)c(-c3ccc(OC)c(OC(C)(C)c4ccc([N+](=O)[O-])s4)c3)[nH]c2c1 [KGP354 (25)]	HCR (hypoxia cytotoxicity ratio)	79
COc1cc(C2=CCCc3c2ccc(OC)c3OCc2cnc([N+](=O)[O-])n2C)cc(OC)c1OC [KGP105 (15)]	HCR (hypoxia cytotoxicity ratio)	6.2
Nc1n[n+]([O-])c2ccccc2[n+]1[O-] [TPZ (1), tirapazamine, reference compound]	HCR (hypoxia cytotoxicity ratio)	8.9
COc1cc(C2=CCCCc3c2ccc(OC)c3OC(C)c2ccc([N+](=O)[O-])s2)cc(OC)c1OC (stereo not drawn) [KGP304 (20)]	HCR (hypoxia cytotoxicity ratio)	6.0
COc1ccc2c(C(=O)c3cc(OC)c(OC)c(OC)c3)c(-c3ccc(OC)c(OCc4ccc([N+](=O)[O-])s4)c3)[nH]c2c1 [KGP311 (23)]	HCR (hypoxia cytotoxicity ratio)	79.7
COc1cc(C2=CCCc3c2ccc(OC)c3OC(C)c2ccc([N+](=O)[O-])s2)cc(OC)c1OC (stereo not drawn) [KGP25 (13)]	HCR (hypoxia cytotoxicity ratio)	11.0

###

test system: A549 human cancer cell line; test: A549 differential cytotoxicity; type: cell-based; conditions: Homo sapiens, A549, read-out: IC50 [oxic] (μM) ± SEM
// reported log10 IC50 for each item listed
ASSAY METRIC: log10 IC50 (log10 of the value in µM)

> print(dat)
                                   molecule  value.reported
1  COc1ccc2c(C(=O)c3cc(OC)c(OC)c(OC)c3)c(-c3ccc(OC)c(OC(C)(C)c4ccc([N+](=O)[O-])s4)c3)[nH]c2c1            0.74
2  COc1cc(C2=CCCc3c2ccc(OC)c3OC(C)c2ccc([N+](=O)[O-])s2)cc(OC)c1OC (stereo not shown)            0.44
3  COc1ccc2c(C(=O)c3cc(OC)c(OC)c(OC)c3)c(-c3ccc(OC)c(OC(C)c4ccc([N+](=O)[O-])s4)c3)[nH]c2c1 (stereo not shown)            0.61
4  COc1cc(C2=CCCc3c2ccc(OC)c3OC(C)(C)c2ccc([N+](=O)[O-])s2)cc(OC)c1OC           -0.89
5  COc1cc(C2=CCCCc3c2ccc(OC)c3OCc2cnc([N+](=O)[O-])n2C)cc(OC)c1OC           -0.44
6  COc1cc(C2=CCCCc3c2ccc(OC)c3OC(C)c2cnc([N+](=O)[O-])n2C)cc(OC)c1OC (stereo not shown)           -0.17
7  COc1cc(C2=CCCc3c2ccc(OC)c3OC(C)c2cnc([N+](=O)[O-])n2C)cc(OC)c1OC (stereo not shown)           -0.42
